- target-entity: CSP2
- condition-details: read-out: CSP2 IC50; displacement of 1-NPN; ligand 2–30 µM
measure-name: pIC50
// pIC50 is dimensionless: -log10 of concentration (M)

In: Look up CSP2 data: pIC50 of CCCCCCCCCCCCCC(C)=O , then report it.
Out: 4.63

In: Look up CSP2 data: pIC50 of C[C@@H]1CC[C@H]2C(C)(C)[C@H]3C[C@@]12CC[C@@]3(C)O [(+)-Cedrol] , then report it.
Out: 4.97

In: Look up CSP2 data: pIC50 of CCCCCCCCCCCC=O , then report it.
Out: 4.71

In: Look up CSP2 data: pIC50 of CCCCCC/C=C\CCCCCCCC=O , then report it.
Out: 4.95

In: Look up CSP2 data: pIC50 of CC=CC=CCO , then report it.
Out: 4.74

In: Look up CSP2 data: pIC50 of CC/C=C\CCO [Z3-Hexenol] , then report it.
Out: 4.68

In: Look up CSP2 data: pIC50 of CCCC/C=C\CCCCCCCCCC=O , then report it.
Out: 4.99

In: Look up CSP2 data: pIC50 of CCCC/C=C\CCCCCCCCCCCC=O , then report it.
Out: 4.70

In: Look up CSP2 data: pIC50 of CCCCCCCCCCCC(C)=O , then report it.
Out: 4.61

In: Look up CSP2 data: pIC50 of O=Cc1ccccc1 , then report it.
Out: 4.55

In: Look up CSP2 data: pIC50 of CCCCCC(C)O (stereo not drawn) , then report it.
Out: 4.97

In: Look up CSP2 data: pIC50 of CCCCC/C=C\C/C=C\CCCCCCCC(=O)O , then report it.
Out: 4.69
